# Target System: Serine/threonine-protein kinase VRK2 (Homo sapiens)
Mark True only when ΔTm stays strictly below 1 °C. Values equal to the cut-off are False.

Recorded results for 5 compounds are shown here.
[[record]]
compound = "C[S+]([O-])c1ccc(-c2nc(-c3ccc(F)cc3)c(-c3ccncc3)[nH]2)cc1 (stereo not given)"
label_value = "True"

[[record]]
compound = "Nc1nccc(-c2c(-c3ccc(F)cc3)ncn2C2CCNCC2)n1"
label_value = "True"

[[record]]
compound = "CN(C)CCCn1cc(C2=C(c3c[nH]c4ccccc34)C(=O)NC2=O)c2ccccc21"
label_value = "True"

[[record]]
compound = "O=Nc1c(-c2c(O)[nH]c3ccccc23)[nH]c2ccccc12"
label_value = "False"

[[record]]
compound = "N=C(N)NCCNS(=O)(=O)c1cccc2cnccc12"
label_value = "True"


Just wondering, is ΔTm of C[C@@H]1C[C@H]2O[C@@H]2/C=C\C=C\C(=O)Cc2c(Cl)c(O)cc(O)c2C(=O)O1 below 1 °C? True

Just wondering, is ΔTm of O=C1Nc2ccccc2/C1=C1/Nc2ccccc2/C1=N\O below 1 °C? False

Just wondering, is ΔTm of C[S+]([O-])c1ccc(CSc2nc(-c3ccc(F)cc3)c(-c3ccncc3)[nH]2)cc1 (stereo not given) below 1 °C? True

Just wondering, is ΔTm of CN(C)c1ccc(CC2C(=O)Nc3ccccc32)cc1 (stereo not given) below 1 °C? True

Just wondering, is ΔTm of Cl.Cn1cc(C2=C(c3ccc4cc5n(c4c3)CCC(CN)C5)C(=O)NC2=O)c2ccccc21 (stereo not given) below 1 °C? True

Just wondering, is ΔTm of Cn1cc(C2=C(c3cn(CCCSC(=N)N)c4ccccc34)C(=O)NC2=O)c2ccccc21 below 1 °C? True

Just wondering, is ΔTm of O=C1Nc2ccc(S(=O)(=O)O)cc2/C1=C1/Nc2ccccc2/C1=N\O below 1 °C? False

Just wondering, is ΔTm of O=C1NC(=O)C(c2cn(CCCn3ccnc3)c3ccccc23)=C1Nc1ccccc1 below 1 °C? True

Just wondering, is ΔTm of O=c1cc(N2CCOCC2)oc2c1ccc1ccccc12 below 1 °C? True

Just wondering, is ΔTm of Brc1c(Br)c(Br)c2[nH]nnc2c1Br below 1 °C? True

Just wondering, is ΔTm of N#C/C(=C\c1ccc(O)c(O)c1)C(=O)Nc1ccccc1 below 1 °C? True

Just wondering, is ΔTm of OC[C@H]1O[C@@H](n2cnc3cc(Cl)c(Cl)cc32)[C@H](O)[C@@H]1O below 1 °C? True

Just wondering, is ΔTm of CN[C@@H]1CC2O[C@@](C)([C@@H]1OC)n1c3ccccc3c3c4c(c5c6ccccc6n2c5c31)C(=O)NC4 below 1 °C? False

Just wondering, is ΔTm of Nc1nc(Nc2ccc(S(N)(=O)=O)cc2)nn1C(=S)Nc1c(F)cccc1F below 1 °C? False

Just wondering, is ΔTm of N#CCCc1ccc2c(c1)-c1[nH]c3ccc([N+](=O)[O-])cc3c1CC(=O)N2 below 1 °C? True

* * *

Reported ΔTm, Serine/threonine-protein kinase 25 (Homo sapiens) (UniProt O00506).

Examples with their reported ΔTm follow.
[[record]]
compound = "Ic1cccc(CSc2nnc(-c3ccncc3)o2)c1"
target_system = "Serine/threonine-protein kinase 25 (Homo sapiens) (UniProt O00506)"
property_label = "ΔTm"
data_value = "-0.3 °C"

[[record]]
compound = "COc1cc(C[C@H]2C(=O)OC[C@@H]2Cc2ccc(OC)c(OC)c2)ccc1O"
target_system = "Serine/threonine-protein kinase 25 (Homo sapiens) (UniProt O00506)"
property_label = "ΔTm"
data_value = "0.1 °C"


Under Serine/threonine-protein kinase 25 (Homo sapiens) (UniProt O00506): ΔTm value of O=S(=O)(NCCNC/C=C/c1ccc(Br)cc1)c1cccc2cnccc12 ? 1 °C

Under Serine/threonine-protein kinase 25 (Homo sapiens) (UniProt O00506): ΔTm value of CC(C)(C)c1nc2c3ccc(F)cc3c3c(=O)[nH]ccc3c2[nH]1 ? 2.9 °C

Under Serine/threonine-protein kinase 25 (Homo sapiens) (UniProt O00506): ΔTm value of O=C1c2ccccc2-[n+]2ccc3c([nH]c4ccccc43)c21 [FASCAPLYSIN CHLORIDE] ? -1.5 °C

Under Serine/threonine-protein kinase 25 (Homo sapiens) (UniProt O00506): ΔTm value of Cn1cnc2c(NCc3ccccc3)nc(NCCO)nc21 ? 0 °C

Under Serine/threonine-protein kinase 25 (Homo sapiens) (UniProt O00506): ΔTm value of COc1ccc2c(c1)/C(=C/c1cnc[nH]1)C(=O)N2 ? 6.4 °C

Under Serine/threonine-protein kinase 25 (Homo sapiens) (UniProt O00506): ΔTm value of CC(C)n1cnc2c(NCc3ccccc3O)nc(NCCCO)nc21 ? 0.3 °C

Under Serine/threonine-protein kinase 25 (Homo sapiens) (UniProt O00506): ΔTm value of COc1ccc(CNC(=O)Nc2ncc([N+](=O)[O-])s2)cc1 ? 0.1 °C

Under Serine/threonine-protein kinase 25 (Homo sapiens) (UniProt O00506): ΔTm value of Cc1cc(C=C2C(=O)C=CC2=O)cc(C)c1O ? 0.4 °C

* * *

# Target System: Serine/threonine-protein kinase PAK 4 (Homo sapiens) (UniProt O96013)
# Sequence (O96013 whole entry, looked up): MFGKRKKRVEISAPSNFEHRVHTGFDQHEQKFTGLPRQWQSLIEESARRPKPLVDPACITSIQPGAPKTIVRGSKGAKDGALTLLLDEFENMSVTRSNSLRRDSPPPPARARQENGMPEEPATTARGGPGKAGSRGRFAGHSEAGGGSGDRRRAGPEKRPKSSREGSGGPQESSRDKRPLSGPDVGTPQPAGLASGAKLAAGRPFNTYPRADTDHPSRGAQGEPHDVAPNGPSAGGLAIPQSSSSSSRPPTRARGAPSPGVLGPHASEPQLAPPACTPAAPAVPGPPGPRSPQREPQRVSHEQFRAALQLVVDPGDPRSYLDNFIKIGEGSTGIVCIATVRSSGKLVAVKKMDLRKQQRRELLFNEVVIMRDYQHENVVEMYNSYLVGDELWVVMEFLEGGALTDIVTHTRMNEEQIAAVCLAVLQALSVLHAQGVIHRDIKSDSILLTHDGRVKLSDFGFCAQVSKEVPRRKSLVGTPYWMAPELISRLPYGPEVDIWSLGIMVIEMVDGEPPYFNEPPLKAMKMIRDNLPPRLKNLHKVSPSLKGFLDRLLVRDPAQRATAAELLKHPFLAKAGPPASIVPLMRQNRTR
# key: entry, value: ΔTm

Examples with their reported ΔTm follow.
[[record]]
smiles_notation = "NCCNS(=O)(=O)c1cccc2c(Cl)cccc12"
property_label = "ΔTm"
data_value = "0.5 °C"

[[record]]
smiles_notation = "O=C(O)/C=C/c1cc(CO)ccc1CO"
property_label = "ΔTm"
data_value = "0.1 °C"

[[record]]
smiles_notation = "N#CC(C#N)=Cc1ccc(O)c(O)c1"
property_label = "ΔTm"
data_value = "-0.1 °C"


Fill blank: measured ΔTm of the molecule Nc1nc(Nc2ccc(S(N)(=O)=O)cc2)nn1C(=S)Nc1c(F)cccc1F is ____. 6.3 °C

Fill blank: measured ΔTm of the molecule COc1cc(/C=C/C(=O)CC(=O)/C=C/c2ccc(O)c(OC)c2)ccc1O is ____. 3 °C

Fill blank: measured ΔTm of the molecule C#Cc1cccc(Nc2ncnc3cc(OCCOC)c(OCCOC)cc23)c1 is ____. 1.6 °C

* * *

# Target System: Calcium/calmodulin-dependent protein kinase type II subunit delta (Homo sapiens) (UniProt Q13557)
# Sequence (Q13557 whole entry): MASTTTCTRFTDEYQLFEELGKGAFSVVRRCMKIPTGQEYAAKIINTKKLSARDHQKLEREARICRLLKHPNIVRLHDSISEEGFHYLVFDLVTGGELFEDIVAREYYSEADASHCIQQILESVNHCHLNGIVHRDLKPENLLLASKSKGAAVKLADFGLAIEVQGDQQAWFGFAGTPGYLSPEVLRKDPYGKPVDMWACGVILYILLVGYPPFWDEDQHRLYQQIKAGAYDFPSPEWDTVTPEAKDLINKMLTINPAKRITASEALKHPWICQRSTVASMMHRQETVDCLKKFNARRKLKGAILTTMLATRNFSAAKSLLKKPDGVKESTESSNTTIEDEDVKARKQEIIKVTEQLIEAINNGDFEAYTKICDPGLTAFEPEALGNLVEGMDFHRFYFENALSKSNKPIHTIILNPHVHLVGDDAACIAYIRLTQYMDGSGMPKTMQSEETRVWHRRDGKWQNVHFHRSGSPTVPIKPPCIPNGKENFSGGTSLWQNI
Respond with true (1) for ΔTm values of -0.3 °C and above, false (0) for values below.

Recorded results for 2 compounds are shown here.
[[record]]
smiles_notation = "Nc1ncnc2c1c(I)cn2[C@@H]1O[C@H](CO)[C@@H](O)[C@H]1O"
label_value = "false (0)"

[[record]]
smiles_notation = "COc1cc(C[C@H]2C(=O)OC[C@@H]2Cc2ccc(OC)c(OC)c2)ccc1O"
label_value = "true (1)"


Quick check: does Cn1cc(/C=C2/C(=O)Nc3ccc(S(N)(=O)=O)cc32)c2ccccc21 have ΔTm greater than or equal to -0.3 °C? true (1)

Quick check: does Oc1cccc(-c2nc(N3CCOCC3)c3oc4ncccc4c3n2)c1 have ΔTm greater than or equal to -0.3 °C? false (0)

* * *

# Target System: Calcium/calmodulin-dependent protein kinase type II subunit delta (Homo sapiens)
Classes by ΔTm: bin A (below -0.2 °C), bin B (-0.2 °C to below 0 °C), bin C (0 °C or more)

Kindly identify the class of O=C(O)c1cc(N(Cc2ccccc2O)Cc2cc(O)ccc2O)ccc1O . bin C

Kindly identify the class of COC1=C2C[C@@H](C)C[C@H](OC)[C@H](O)[C@@H](C)/C=C(\C)[C@H](OC(N)=O)[C@@H](OC)/C=C\C=C(/C)C(=O)NC(=CC1=O)C2=O . bin A

* * *

# Target System: Epidermal growth factor receptor (Homo sapiens, UniProt P00533, L861Q)
# Sequence (P00533 25-1210 L861Q limits assumed): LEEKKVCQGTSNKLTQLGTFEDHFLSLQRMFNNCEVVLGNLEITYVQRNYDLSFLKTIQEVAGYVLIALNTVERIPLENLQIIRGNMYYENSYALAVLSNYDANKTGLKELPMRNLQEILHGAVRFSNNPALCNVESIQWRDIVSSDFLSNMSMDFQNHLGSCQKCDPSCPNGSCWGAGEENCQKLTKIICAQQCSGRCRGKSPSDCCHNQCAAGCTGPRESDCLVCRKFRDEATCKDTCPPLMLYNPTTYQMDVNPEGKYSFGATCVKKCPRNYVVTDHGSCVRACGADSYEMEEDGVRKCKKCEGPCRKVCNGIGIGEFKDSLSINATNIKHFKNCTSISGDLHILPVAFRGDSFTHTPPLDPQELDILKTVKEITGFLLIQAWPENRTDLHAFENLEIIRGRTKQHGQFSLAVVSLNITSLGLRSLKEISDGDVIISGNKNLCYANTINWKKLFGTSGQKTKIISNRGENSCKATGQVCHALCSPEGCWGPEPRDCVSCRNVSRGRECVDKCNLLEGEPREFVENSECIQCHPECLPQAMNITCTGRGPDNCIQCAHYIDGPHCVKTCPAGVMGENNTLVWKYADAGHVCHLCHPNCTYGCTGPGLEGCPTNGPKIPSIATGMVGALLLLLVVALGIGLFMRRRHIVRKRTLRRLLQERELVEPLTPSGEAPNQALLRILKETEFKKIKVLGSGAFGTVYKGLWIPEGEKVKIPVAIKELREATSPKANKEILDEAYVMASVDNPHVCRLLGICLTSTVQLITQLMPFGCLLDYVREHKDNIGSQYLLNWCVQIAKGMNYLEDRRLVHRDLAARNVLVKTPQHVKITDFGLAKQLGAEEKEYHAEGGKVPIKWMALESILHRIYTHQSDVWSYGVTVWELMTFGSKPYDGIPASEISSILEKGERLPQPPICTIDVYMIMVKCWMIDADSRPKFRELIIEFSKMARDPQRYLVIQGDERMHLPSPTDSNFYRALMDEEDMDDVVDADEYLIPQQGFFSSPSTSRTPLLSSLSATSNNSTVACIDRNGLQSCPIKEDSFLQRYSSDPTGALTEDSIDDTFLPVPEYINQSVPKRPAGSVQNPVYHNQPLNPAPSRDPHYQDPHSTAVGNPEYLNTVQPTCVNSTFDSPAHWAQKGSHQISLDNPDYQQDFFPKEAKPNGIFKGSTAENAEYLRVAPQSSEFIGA
# Assay Remarks: Inhibition of EGFR L861Q mutant
# Format: protein assay
Property Label: IC50 (nM)
Report as a plain number; the unit nM is understood.

Fill blank: measured IC50 of the compound O=C(Nc1cccc(Nc2cc(Nc3cccc(C(F)(F)F)c3)ncn2)c1)C1CC1 is ____. 4

* * *

# Target System: Mitogen-activated protein kinase 10 (Homo sapiens, UniProt P53779)
# Sequence (P53779 whole entry): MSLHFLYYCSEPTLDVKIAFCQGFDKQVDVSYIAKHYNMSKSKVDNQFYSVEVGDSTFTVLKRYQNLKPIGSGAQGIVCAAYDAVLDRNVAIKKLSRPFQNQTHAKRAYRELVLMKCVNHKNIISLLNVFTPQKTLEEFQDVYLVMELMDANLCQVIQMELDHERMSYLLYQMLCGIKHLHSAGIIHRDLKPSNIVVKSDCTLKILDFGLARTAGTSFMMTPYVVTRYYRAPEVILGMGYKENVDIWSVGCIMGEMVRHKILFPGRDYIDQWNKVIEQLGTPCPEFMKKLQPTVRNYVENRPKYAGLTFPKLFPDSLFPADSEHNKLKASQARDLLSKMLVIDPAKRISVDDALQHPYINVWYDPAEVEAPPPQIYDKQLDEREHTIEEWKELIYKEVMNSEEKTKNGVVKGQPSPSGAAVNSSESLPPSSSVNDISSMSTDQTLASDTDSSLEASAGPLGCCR
Property Label: IC50 (µM)
Report as a plain number; the unit µM is understood.

Fill blank: measured IC50 of the compound Oc1c2ccccc2c2c3c(cccc13)N=N2 [SP-600125] is ____. 0.09

* * *

# Target System: Cyclin-dependent kinase 6 (Homo sapiens) (UniProt Q00534)
# Sequence (Q00534 whole entry): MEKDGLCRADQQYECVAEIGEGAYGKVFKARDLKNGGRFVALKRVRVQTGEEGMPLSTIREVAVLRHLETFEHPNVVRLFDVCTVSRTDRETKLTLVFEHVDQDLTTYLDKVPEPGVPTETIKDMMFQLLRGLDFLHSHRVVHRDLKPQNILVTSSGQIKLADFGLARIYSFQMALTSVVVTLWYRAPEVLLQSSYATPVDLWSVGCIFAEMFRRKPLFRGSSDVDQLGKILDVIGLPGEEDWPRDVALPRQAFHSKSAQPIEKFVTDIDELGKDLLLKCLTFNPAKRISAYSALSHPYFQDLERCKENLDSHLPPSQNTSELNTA
Classes by ΔTm: LOW = under 0.1 °C, MEDIUM = from 0.1 °C up to 1 °C, HIGH = 1 °C and over

[[record]]
smiles_notation = "O=C1Cc2c([nH]c3ccc([N+](=O)[O-])cc23)-c2ccccc2N1"
label_value = "HIGH"

[[record]]
smiles_notation = "Clc1ccc(Nc2nnc(Cc3ccncc3)c3ccccc23)cc1"
label_value = "MEDIUM"

[[record]]
smiles_notation = "Cc1cc(Nc2nc(-c3ccccc3)nc3ccccc23)n[nH]1"
label_value = "HIGH"

[[record]]
smiles_notation = "O=C1Nc2ccccc2/C1=C/c1cnc[nH]1"
label_value = "HIGH"


Kindly identify the class of NC1=NC(=O)/C(=C2\CCNC(=O)c3[nH]c(Br)cc32)N1 . HIGH

Kindly identify the class of Cc1nc2sccn2c(=O)c1CCN1CCC(=C(c2ccccc2)c2ccc(F)cc2)CC1 . LOW

Kindly identify the class of O=c1c2ccccc2[nH]c(=S)n1CCN1CCC(=C(c2ccc(F)cc2)c2ccc(F)cc2)CC1 . LOW

Kindly identify the class of CC(=O)O/N=C1/C(=C2/C(=O)Nc3cc(Br)ccc32)Nc2ccccc21 . HIGH

Kindly identify the class of C[C@@H]1C[C@H]2O[C@@H]2/C=C\C=C\C(=O)Cc2c(Cl)c(O)cc(O)c2C(=O)O1 . LOW
